compounds and their reported Ki
- SYSTEM: B2 bradykinin receptor (Cavia porcellus, UniProt O70526)
- Sequence (O70526 whole entry): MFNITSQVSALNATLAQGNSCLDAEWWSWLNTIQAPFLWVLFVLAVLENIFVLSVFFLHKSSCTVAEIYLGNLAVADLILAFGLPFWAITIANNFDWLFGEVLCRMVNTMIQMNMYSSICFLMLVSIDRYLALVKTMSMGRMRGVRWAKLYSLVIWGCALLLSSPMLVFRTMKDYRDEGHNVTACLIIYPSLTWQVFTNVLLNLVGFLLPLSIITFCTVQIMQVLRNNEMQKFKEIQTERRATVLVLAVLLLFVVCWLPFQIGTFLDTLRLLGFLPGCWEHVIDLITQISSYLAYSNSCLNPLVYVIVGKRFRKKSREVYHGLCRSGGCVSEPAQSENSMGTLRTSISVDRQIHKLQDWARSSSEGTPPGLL
Where a SMILES comes first, the peptide text is derived from it. [ ]: non-standard residue; d: D form. Oic = O=C(O)[C@@H]1C[C@@H]2CCCC[C@@H]2N1; Hyp = O=C(O)[C@@H]1C[C@@H](O)CN1; dTic = O=C(O)[C@H]1Cc2ccccc2CN1
Only the number, expressed in nM, is required.

Recorded Ki, per entry:
// compound NC(N)=NCCC[C@@H](N)C(=O)N[C@@H](CCCN=C(N)N)C(=O)N1CCC[C@H]1C(=O)N1C[C@H](O)C[C@H]1C(=O)NCC(=O)N[C@@H](Cc1ccccc1)C(=O)N[C@@H](CO)C(=O)N1Cc2ccccc2C[C@@H]1C(=O)N1[C@H](C(=O)N[C@@H](CCCN=C(N)N)C(=O)O)C[C@@H]2CCCC[C@@H]21 (H-[dR]RP[Hyp]GFS[dTic][Oic]R-OH) , assay B2 bradykinin receptor (Cavia porcellus, UniProt O70526), Ki value: 0.08

// compound C[C@@](Cc1ccccc1)(NC(=O)CNC(=O)[C@@H]1C[C@H](O)CN1C(=O)[C@@H]1CCCN1C(=O)[C@H](CCCN=C(N)N)NC(=O)[C@H](N)CCCN=C(N)N)C(=O)N[C@@H](CO)C(=O)N1Cc2ccccc2C[C@@H]1C(=O)N1C2CCCCC2C[C@H]1C(=O)N[C@@H](CCCN=C(N)N)C(=O)O (stereo not given in full) , assay B2 bradykinin receptor (Cavia porcellus, UniProt O70526), Ki value: 0.54

// compound CN(CC(=O)N[C@@H](Cc1ccccc1)C(=O)N[C@@H](CO)C(=O)N1Cc2ccccc2C[C@@H]1C(=O)N1C2CCCCC2C[C@H]1C(=O)N[C@@H](CCCN=C(N)N)C(=O)O)C(=O)[C@@H]1C[C@H](O)CN1C(=O)[C@@H]1CCCN1C(=O)[C@H](CCCN=C(N)N)NC(=O)[C@H](N)CCCN=C(N)N (stereo not given in full) , assay B2 bradykinin receptor (Cavia porcellus, UniProt O70526), Ki value: 30.8

// compound CC(NC(=O)[C@@H]1C[C@H](O)CN1C(=O)[C@@H]1CCCN1C(=O)[C@H](CCCN=C(N)N)NC(=O)[C@H](N)CCCN=C(N)N)C(=O)N[C@@H](Cc1ccccc1)C(=O)N[C@@H](CO)C(=O)N1Cc2ccccc2C[C@@H]1C(=O)N1C2CCCCC2C[C@H]1C(=O)N[C@@H](CCCN=C(N)N)C(=O)O (stereo not given in full) , assay B2 bradykinin receptor (Cavia porcellus, UniProt O70526), Ki value: 82.3

Here is another compound to look at.
// compound CC(NC(=O)[C@@H]1C[C@H](O)CN1C(=O)[C@@H]1CCCN1C(=O)[C@H](CCCN=C(N)N)NC(=O)[C@H](N)CCCN=C(N)N)C(=O)N[C@@](C)(Cc1ccccc1)C(=O)N[C@@H](CO)C(=O)N1Cc2ccccc2C[C@@H]1C(=O)N1C2CCCCC2C[C@H]1C(=O)N[C@@H](CCCN=C(N)N)C(=O)O (stereo not given in full) , assay B2 bradykinin receptor (Cavia porcellus, UniProt O70526), Ki value: 3030

* * *

- SYSTEM: B2 bradykinin receptor (Cavia porcellus, UniProt O70526)
- ASSAY_TEXT: Antagonism against bradykinin receptor B2 in guinea pig ileal tissue
- Type: functional
- CONDITION_DETAILS: read-out: pA2 (converted)
Where a SMILES comes first, the peptide text is derived from it. Bridges are numbered along the chain shown (N, C = ends). [ ]: non-standard residue; d: D form. Oic = O=C(O)[C@@H]1C[C@@H]2CCCC[C@@H]2N1; Hyp = O=C(O)[C@@H]1C[C@@H](O)CN1; dTic = O=C(O)[C@H]1Cc2ccccc2CN1
Decide by Kb: equal to or exceeding 10 nM means MET, less means NOT MET.

input: Reported Kb at or above 10 nM? CN(C(=O)CNC(=O)[C@@H]1C[C@H](O)CN1C(=O)[C@@H]1CCCN1C(=O)[C@H](CCCN=C(N)N)NC(=O)[C@H](N)CCCN=C(N)N)[C@@H](Cc1ccccc1)C(=O)N[C@@H](CO)C(=O)N1Cc2ccccc2C[C@@H]1C(=O)N1C2CCCCC2C[C@H]1C(=O)N[C@@H](CCCN=C(N)N)C(=O)O (stereo not given in full)
output: MET

input: Reported Kb at or above 10 nM? N=C(N)NCCC[C@@H](N)C(=O)N[C@@H](CCCNC(=N)N)C(=O)N[C@H]1CSSC[C@@H](C(=O)N[C@@H](CO)C(=O)N2Cc3ccccc3C[C@@H]2C(=O)N2[C@H](C(=O)N[C@@H](CCCNC(=N)N)C(=O)O)C[C@@H]3CCCC[C@@H]32)NC(=O)CNC(=O)[C@@H]2CCCN2C1=O (H-[dR]RCPGCS[dTic][Oic]R-OH; disulfide 3-6)
output: MET

input: Reported Kb at or above 10 nM? NC(N)=NCCC[C@@H](N)C(=O)N[C@@H](CCCN=C(N)N)C(=O)N1CCC[C@H]1C(=O)N1C[C@H](O)C[C@H]1C(=O)NCC(=O)N[C@@H](Cc1ccccc1)C(=O)N[C@@H](CO)C(=O)N1Cc2ccccc2C[C@@H]1C(=O)N1[C@H](C(=O)N[C@@H](CCCN=C(N)N)C(=O)O)C[C@@H]2CCCC[C@@H]21 (H-[dR]RP[Hyp]GFS[dTic][Oic]R-OH)
output: NOT MET

New cases:
input: Reported Kb at or above 10 nM? C[C@@](Cc1ccccc1)(NC(=O)CNC(=O)[C@@H]1C[C@H](O)CN1C(=O)[C@@H]1CCCN1C(=O)[C@H](CCCN=C(N)N)NC(=O)[C@H](N)CCCN=C(N)N)C(=O)N[C@@H](CO)C(=O)N1Cc2ccccc2C[C@@H]1C(=O)N1C2CCCCC2C[C@H]1C(=O)N[C@@H](CCCN=C(N)N)C(=O)O (stereo not given in full)
output: MET

input: Reported Kb at or above 10 nM? NC(N)=NCCC[C@@H](N)C(=O)N[C@@H](CCCN=C(N)N)C(=O)N[C@H]1CSSC[C@@H](C(=O)N2Cc3ccccc3C[C@@H]2C(=O)N2[C@H](C(=O)N[C@@H](CCCN=C(N)N)C(=O)O)C[C@@H]3CCCC[C@@H]32)NC(=O)[C@H](Cc2ccccc2)NC(=O)CNC(=O)[C@@H]2CCCN2C1=O (H-[dR]RCPGFC[dTic][Oic]R-OH; disulfide 3-7)
output: MET
